target: T1, Goat anti-Human Kappa; experiment: ELISA; positive control; further: test concentration or dose not given here
T1 construct: Positive control; also called biotinylated goat anti-human kappa light chain
MEASUREMENT_TYPE: optical density (OD)
I only need the number, in OD, no unit after it.

BINDER	optical density, OD
371_F03 (antibody, V domains shown, VH/VL only) VH: EVQLLESGGGLVQPGGSLRLSCAASGFTFSSYSMNWVRQAPGKGLEWVSGINYNGGYTSYADSVKGRFTISRDNSKNTLYLQMNSLRAEDTAVYYCARGATWHDTHLDYWGQGTLVTVSS VL: DIQMTQSPSSLSASVGDRVTITCRASQSIITYLNWYQQKPGKAPKLLIYAATSLHSGVPSRFSGSGSGTDFTLTISSLQPEDFATYYCQQSYDNPLTFGGGTKVEIK	1.82

Tell me its optical density given 376_G06 (antibody, V domains shown, VH/VL only) VH: EVQLLESGGGLVQPGGSLRLSCAASGFTFSSYGMNWVRQAPGKGLEWVAGINYNGGYTGYADSVKGRFTISRDNSKNTLYLQMNSLRAEDTAVYYCARGANWHDTHLDYWGQGTLVTVSS VL: DIQMTQSPSSLSASVGDRVTITCRASQSIVSYVNWYQQKPGKAPKLVIYAATSRASGVPSRFSGSGSGTDFTLTISSLQPEDFATYYCQQSYNSPLTFGGGTKVEIK as the entry.
3.49
